- test.details: Acute oral toxicity (LD50)
- experimental.parameters: mouse, in vivo, Maus, p.o., read-out: LD₅₀
value.kind: LD50 (mg/kg)

- Nc1c(Br)cc(Br)cc1CN[C@H]1CC[C@H](O)CC1 [Verbindung B]: 2720
